The measurements presented in this section are drawn from the RNAGym collection of RNA variant scans (doi:10.7554/elife.80360).

B1: HDV Ribozyme (parent)
chain: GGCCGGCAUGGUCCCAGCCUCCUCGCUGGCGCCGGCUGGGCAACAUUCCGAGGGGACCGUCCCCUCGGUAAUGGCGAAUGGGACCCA

Variants of: B1
Procedure details: self-cleavage, relative activity (ratio to wild type); higher = more cleavage; co-transcriptional
Listing of recorded self-cleavage by entry.
Please state the value as a number alone, without comment.

Variant label | Measured
U47G U79A | 0.95
C18A G28A | 0.128

Query: // lookup self-cleavage for G50C A83G
Response: 0.491

Query: // lookup self-cleavage for G52U C63U
Response: 1
